- protocol notes: Kinetic solubility
- Format: physicochemical
- test context: phosphate buffer, pH 7.4, aqueous buffer, kinetic from dmso stock, 100 mM pH 7.4 phosphate buffer, 1% DMSO, room temperature, read-out: Kinetics Solubility_PBS7.4
- Description: Aliquots of 8 µL of reference and test compound stock solutions (10 mM/5 mM) are added into 792 µL of 100 mM pH 7.4 phosphate buffer. The final DMSO concentration is 1%. Sample tubes are shaken for 2 hours at 1000 rpm at room temperature. Samples are centrifuged at 12000 rpm for 10 min to precipitate un-dissolved particles. And transfer the supernatants to a new tube or plate. […]
Classification field. Basis: solubility kinetic at 2 h. Definitions: low = under 20 µM, medium = from 20 µM up to 40 µM, high = 40 µM and over

// below: answered compounds
[2H]C([2H])([2H])NC(=O)c1cnc(NC(=O)C2CC2)cc1Nc1cn(C)c2ccc(CC)c(OC)c12: low
[2H]C([2H])([2H])NC(=O)c1cnc(Nc2ccn(C)n2)cc1Nc1cnn2ccc([C@H](O)C(F)(F)F)c(OC)c12: high
[2H]C([2H])([2H])NC(=O)c1cnc(NC(=O)C2CC2)cc1Nc1cnn2ccc(COC([2H])([2H])[2H])c(OC)c12: high
[2H]C([2H])([2H])NC(=O)c1cnc(NC(=O)C2CC2)cc1Nc1cnn2ccc([C@H](OC)C(F)(F)F)c(OC)c12: low
[2H]C([2H])([2H])NC(=O)c1cnc(NC(=O)C2CC2)cc1Nc1cnn2ccc([C@H](OC(C)=O)C(F)(F)F)c(OC)c12: medium

Ask: Each compound maps to one class by solubility kinetic at 2 h. Which class for [2H]C([2H])([2H])NC(=O)c1cnc(NC(=O)C2(F)CC2)cc1Nc1cnn2ccc([C@H](O)C(F)(F)F)c(OC)c12 ?
Result: medium

Ask: Record: [2H]C([2H])([2H])NC(=O)c1nnc(NC(=O)C2CC2)cc1Nc1cnn2ccc([C@H](O)C(F)(F)F)c(OC)c12
Result: high

Ask: Record: [2H]C([2H])([2H])NC(=O)c1cnc(NC(=O)[C@@H]2C[C@@H]2F)cc1Nc1cnn2ccc(C(O)C(F)(F)F)c(OC)c12 (single isomer, unassigned) [Example 15A]
Result: medium

Ask: Record: [2H]C([2H])([2H])NC(=O)c1cnc(Nc2cc(C)nc(C)n2)cc1Nc1cnn2ccc([C@H](O)C(F)(F)F)c(OC)c12
Result: high

----------
Record form. Attribute: pIC50. Fill in for each entry.
- system name: JAK1-JH2 domain (Homo sapiens)
- Construct: JAK1-JH2 domain or TYK2-JH2 domain enzyme in assay buffer
- Sequence (P23458 583-855 limits assumed): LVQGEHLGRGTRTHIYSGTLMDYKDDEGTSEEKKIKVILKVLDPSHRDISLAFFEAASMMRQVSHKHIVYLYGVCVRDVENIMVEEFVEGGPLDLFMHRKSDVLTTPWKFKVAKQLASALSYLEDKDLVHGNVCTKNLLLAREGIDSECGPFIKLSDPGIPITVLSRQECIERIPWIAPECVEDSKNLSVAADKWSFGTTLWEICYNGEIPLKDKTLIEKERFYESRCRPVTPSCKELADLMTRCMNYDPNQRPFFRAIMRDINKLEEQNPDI
- protocol notes: Binding activity test for JH2 domain of JAK1 (Tb-antibody/tracer FRET)
- test context: JH2 domain enzyme; 60 min at 25°C, then 4°C overnight; read-out: JAK1 JH2 Binding IC50
Numbers only, as −log10 of the molar value.

Some compounds with known pIC50 results, for comparison:
[2H]C([2H])([2H])NC(=O)c1cnc(NC(=O)C2CC2)cc1Nc1nn(CC)c2ccc(C(O)C(F)(F)F)c(OC)c12 (single isomer, unassigned) [Example 71A]: 8.14
[2H]C([2H])([2H])NC(=O)c1cnc(NC(=O)C2CC2)cc1Nc1cnn2ccc(CO)c(OC)c12: 8.12
[2H]C([2H])([2H])NC(=O)c1cnc(NC(=O)C2CC2)cc1Nc1cnn2ccc(C(=O)OC)c(OC)c12: 8.13

Ask: Endpoint output: pIC50 of COCC(OC)c1ccc2c(c(Nc3cc(NC(=O)C4CC4)ncc3C(=O)OC)nn2C)c1OC (stereo not shown) . Value?
Result: 8.09
